Protocol Description: suppression of endothelial VCAM-1 upregulation – imaging, high-content imaging, pooled HUVEC, TNFa stimulus (AID 456);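 as to inhibition: VCAM-1 immunofluorescence minus red nonspecific channel after plate median normalization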
Experimental Conditions: HUVEC TNFa-induced VCAM-1 surface expression, immunofluorescence imaging;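 compounds screened at 5 µM final in the well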
About 25 (0.2%) of roughly 10,000 compounds were called active. For the sample, actives were picked, then their nearest neighbours and some compounds at random. Results with a measured potency or affinity are listed apart.
Measurement Kind: inhibition

Here are 4 compounds together with their reported answers.
Cc1ccc(-c2[nH]nc3c2C(c2ccc(OC(=O)N4CCOCC4)cc2)C(C#N)=C(N)O3)cc1 (stereo not given)
inactive
Cc1ccc2oc(=O)c3cnn(CC(=O)N4CCCCC4C)c3c2c1 (stereo not given)
inactive
CCOc1ccc2ccccc2c1C(=O)N1CCN(c2ccccc2)CC1
inactive
CCOC(=O)c1c(C)oc2ccc(O)c(CN(C)C)c12
inactive

Now consider the entry below.
Given Cc1ccc(NC(=O)c2ccco2)c(NC(=O)CN2C(=O)c3ccccc3C2=O)c1 , state its recorded inhibition.
inactive

====

Protocol Description: suppression of endothelial VCAM-1 upregulation – imaging, high-content imaging, pooled HUVEC, TNFa stimulus (AID 456)
Experimental Conditions: HUVEC TNFa-induced VCAM-1 surface expression, immunofluorescence imaging;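 compounds screened at 5 µM final in the well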
Screen size: about 10,000 compounds; about 25 (0.2%) were called active.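 How the source made its calls: active means top tenth filtered wells with inhibition above zero that passed visual or statistical confirmation; inactive means the rest, including hits rejected on review.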 The sample as a whole holds a higher share of actives than the screen did. Potency and affinity values are given separately.
Would you mind answering with one of these outcomes? y for active, n for inactive

For COc1ccccc1-c1noc(-c2ccco2)n1 , what call appears in the results of this test?
n

For COc1ccccc1N1CCN(C(=O)CSc2nc3ncnc(N)c3[nH]2)CC1 , what call appears in the results of this test?
n

For O=C(Nc1ccccc1N1CCN(C(=O)c2ccc(Cl)cc2)CC1)c1cc2ccccc2o1 , what call appears in the results of this test?
n

For O=c1[nH]c(NCc2ccccc2)nc2c1CCCC2 , what call appears in the results of this test?
n

For CC(=O)OCC(=O)[C@@]1(O)[C@H](C)C[C@H]2[C@@H]3CCC4=CC(=O)C=C[C@]4(C)[C@@]3(F)[C@@H](O)C[C@@]21C , what call appears in the results of this test?
n

For COc1ccccc1N1CCN(C(=O)c2cc(C3CC3)on2)CC1 , what call appears in the results of this test?
n

For CCCC(=O)O[C@]1(C(=O)CCl)[C@@H](C)C[C@H]2[C@@H]3CCC4=CC(=O)C=C[C@]4(C)[C@@]3(F)C(=O)C[C@@]21C , what call appears in the results of this test?
n

For CCCN1C=CC(=C2C(=O)c3ccccc3C2=O)C=C1 , what call appears in the results of this test?
n

For CCC(=O)O[C@]1(C(=O)CCl)[C@@H](C)C[C@H]2[C@@H]3CCC4=CC(=O)C=C[C@]4(C)[C@@]3(F)[C@@H](O)C[C@@]21C , what call appears in the results of this test?
y

====

Protocol Description: suppression of endothelial VCAM-1 upregulation – imaging, high-content imaging, pooled HUVEC, TNFa stimulus (AID 456)
Experimental Conditions: HUVEC TNFa-induced VCAM-1 surface expression, immunofluorescence imaging;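 compounds screened at 5 µM final in the well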
In all, about 10,000 compounds went through this assay and about 25 (0.2%) were called active.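 How the source made its calls: active means top tenth filtered wells with inhibition above zero that passed visual or statistical confirmation; inactive means the rest, including hits rejected on review.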 The list comes from a sample in which actives are over-represented; it also holds close analogues and randomly drawn compounds. Results with a measured potency or affinity are listed apart.
Would you mind answering with one of these outcomes? y (active), n (inactive)

For Cc1cccc(-c2nnc(SCC#N)n2-c2cccc(Cl)c2)c1 , what call appears in the results of this test?
n

For COc1ccc(NC(=O)c2cc(C(C)C)on2)c(OC)c1 , what call appears in the results of this test?
n

For O=C(NCCN1CCOCC1)c1ccc2c(c1)N(Cc1ccccc1)C(=O)CS2 , what call appears in the results of this test?
n

For O=C(COC(=O)c1ccc(S(=O)(=O)Nc2ccccc2)cc1)NCCN1C(=O)CSC1=O , what call appears in the results of this test?
n

For C#CCN1C(=O)C(O)(CC(=O)c2cccc(OC)c2)c2ccccc21 (stereo not given) , what call appears in the results of this test?
n

For Cc1ccc(S(=O)(=O)N2CCCC(c3nnc4n3-c3ccccc3SC4)C2)cc1 (stereo not given) , what call appears in the results of this test?
n

For COc1ccc(C)cc1-n1c(N)c(C#N)c(C#N)c1-c1ccc(OC)c(OC)c1OC , what call appears in the results of this test?
y

For COc1ccc(Cn2c(N)c(C#N)c3nc4ccccc4nc32)cc1OC , what call appears in the results of this test?
n

For COC(=O)CCN(C(=O)c1ccc2c(c1)OCO2)c1ccccn1 , what call appears in the results of this test?
n

For O=C(NCCN1CCOCC1)C1CC(=O)N(c2ccc(F)c(Cl)c2)C1 (stereo not given) , what call appears in the results of this test?
n
